All figures here come from patent US10231954B2.

# assay target: OSR1 (Homo sapiens, UniProt O95747)
# Sequence (O95747 whole entry): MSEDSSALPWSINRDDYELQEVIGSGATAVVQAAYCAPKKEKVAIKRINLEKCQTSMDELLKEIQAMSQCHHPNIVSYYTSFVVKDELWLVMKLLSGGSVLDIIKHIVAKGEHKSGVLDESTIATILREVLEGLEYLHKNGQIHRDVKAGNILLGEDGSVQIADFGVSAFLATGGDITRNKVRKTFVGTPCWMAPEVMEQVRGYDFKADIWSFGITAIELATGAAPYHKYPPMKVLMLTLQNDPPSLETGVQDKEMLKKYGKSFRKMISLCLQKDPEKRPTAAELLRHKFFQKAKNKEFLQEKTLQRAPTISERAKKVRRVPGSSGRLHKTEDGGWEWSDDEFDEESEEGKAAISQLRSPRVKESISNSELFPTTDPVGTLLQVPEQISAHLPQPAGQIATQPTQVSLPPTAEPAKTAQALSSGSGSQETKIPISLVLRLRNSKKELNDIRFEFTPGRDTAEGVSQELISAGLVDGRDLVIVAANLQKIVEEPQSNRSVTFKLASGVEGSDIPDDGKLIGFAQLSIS
# assay text: Kinase profiling OSR1
# Assay type: biochemical
# protocol conditions: 100 micromolar inhibitor concentration; 100 is no change; read-out: residual kinase activity, OSR1
outcome measure: remaining activity at 100 µM (%)

1) CC(=O)Nc1nc2ccc(O)cc2s1; 78
2) CC(=O)Nc1nc2ccc(C(F)(F)F)cc2s1; 75
3) CC(=O)Nc1nc2cc(C(F)(F)F)ccc2s1; 113
4) CC(=O)Nc1nc2ccc(C#N)cc2s1; 79
5) COc1ccc2sc(NC(C)=O)nc2c1; 119
6) CC(=O)Nc1nc2cc(F)ccc2s1; 109

* * *

# assay target: PRK2 (Homo sapiens, UniProt Q16513)
# Sequence (Q16513 whole entry, species assumed): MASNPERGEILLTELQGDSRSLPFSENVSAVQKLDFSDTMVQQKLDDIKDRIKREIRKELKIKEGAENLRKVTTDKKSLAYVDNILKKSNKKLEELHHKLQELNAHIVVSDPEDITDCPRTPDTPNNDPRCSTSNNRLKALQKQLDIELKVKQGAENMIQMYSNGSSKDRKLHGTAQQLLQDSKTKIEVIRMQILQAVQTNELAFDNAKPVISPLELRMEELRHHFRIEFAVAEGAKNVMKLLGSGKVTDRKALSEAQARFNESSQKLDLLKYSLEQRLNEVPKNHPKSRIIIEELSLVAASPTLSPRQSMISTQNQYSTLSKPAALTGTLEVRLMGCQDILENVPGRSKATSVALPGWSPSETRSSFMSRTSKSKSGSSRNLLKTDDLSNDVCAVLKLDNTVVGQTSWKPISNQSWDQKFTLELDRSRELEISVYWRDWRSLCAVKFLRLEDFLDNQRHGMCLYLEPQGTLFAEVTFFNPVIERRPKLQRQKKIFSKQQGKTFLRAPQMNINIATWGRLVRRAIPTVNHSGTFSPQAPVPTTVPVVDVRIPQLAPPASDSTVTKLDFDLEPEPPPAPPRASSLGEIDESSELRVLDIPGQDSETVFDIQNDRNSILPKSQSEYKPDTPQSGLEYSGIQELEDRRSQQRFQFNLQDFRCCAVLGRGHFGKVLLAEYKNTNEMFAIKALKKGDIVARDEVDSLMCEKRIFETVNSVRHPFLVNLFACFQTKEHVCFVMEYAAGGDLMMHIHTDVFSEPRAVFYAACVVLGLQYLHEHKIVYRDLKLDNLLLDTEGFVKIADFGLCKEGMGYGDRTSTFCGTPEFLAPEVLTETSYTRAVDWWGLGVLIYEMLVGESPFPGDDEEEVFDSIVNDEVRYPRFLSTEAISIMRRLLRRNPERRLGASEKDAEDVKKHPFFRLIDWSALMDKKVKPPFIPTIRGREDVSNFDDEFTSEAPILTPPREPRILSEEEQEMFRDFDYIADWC
# assay text: Kinase profiling PRK2
# Format: biochemical
# protocol conditions: 100 micromolar inhibitor concentration; 100 is no change
// values below are reported residual kinase activity, PRK2
outcome measure: residual kinase activity, PRK2

1. O=C(Nc1nc2cc(O)ccc2s1)c1cccnc1; 85
2. O=C(Nc1nc2ccc(O)cc2s1)c1cccnc1; 46
3. CC(=O)Nc1nc2ccccc2s1; 81
4. O=C(Nc1nc2ccc(F)cc2s1)c1ccccc1; 95
5. O=C(Nc1nc2ccc(O)cc2s1)c1ccccn1; 66
6. CC(=O)Nc1ccc(C(=O)Nc2nc3ccc(O)cc3s2)cc1; 54
7. O=C(Nc1nc2ccc(O)cc2s1)c1ccccc1; 27
8. CC(=O)Nc1nc2ccc(F)cc2s1; 80
9. CC(=O)NC(C)C(=O)Nc1nc2ccc(C(F)(F)F)cc2s1 (stereo not drawn); 79
10. COc1ccc2sc(NC(=O)c3ccccc3)nc2c1; 84
11. CC(=O)Nc1cccc(C(=O)Nc2nc3cc(O)ccc3s2)c1; 44
12. COc1ccc2sc(NC(=O)c3cccc(NC(C)=O)c3)nc2c1; 66
13. COC(=O)c1cccc(C(=O)Nc2nc3ccc(F)cc3s2)c1; 85
14. CC(=O)Nc1ccc(C(=O)Nc2nc3cc(O)ccc3s2)cc1; 67
15. O=C(Nc1nc2ccc(C(F)(F)F)cc2s1)c1ccccc1; 85
16. O=C(Nc1nc2cc(O)ccc2s1)c1ccccc1; 68
17. N#Cc1ccc2nc(NC(=O)c3ccccc3)sc2c1; 105
18. O=C(Nc1nc2cc(O)ccc2s1)c1ccccn1; 97
19. COC(=O)c1cccc(C(=O)Nc2nc3cc(OC)ccc3s2)c1; 100
20. COc1ccc2sc(NC(=O)c3ccc(NC(C)=O)cc3)nc2c1; 92
21. COc1ccc2nc(NC(=O)c3ccccc3)sc2c1; 91

* * *

// values below are reported residual kinase activity, PKD1
# assay target: PKD1 (Homo sapiens)
# Sequence (Q15139 whole entry): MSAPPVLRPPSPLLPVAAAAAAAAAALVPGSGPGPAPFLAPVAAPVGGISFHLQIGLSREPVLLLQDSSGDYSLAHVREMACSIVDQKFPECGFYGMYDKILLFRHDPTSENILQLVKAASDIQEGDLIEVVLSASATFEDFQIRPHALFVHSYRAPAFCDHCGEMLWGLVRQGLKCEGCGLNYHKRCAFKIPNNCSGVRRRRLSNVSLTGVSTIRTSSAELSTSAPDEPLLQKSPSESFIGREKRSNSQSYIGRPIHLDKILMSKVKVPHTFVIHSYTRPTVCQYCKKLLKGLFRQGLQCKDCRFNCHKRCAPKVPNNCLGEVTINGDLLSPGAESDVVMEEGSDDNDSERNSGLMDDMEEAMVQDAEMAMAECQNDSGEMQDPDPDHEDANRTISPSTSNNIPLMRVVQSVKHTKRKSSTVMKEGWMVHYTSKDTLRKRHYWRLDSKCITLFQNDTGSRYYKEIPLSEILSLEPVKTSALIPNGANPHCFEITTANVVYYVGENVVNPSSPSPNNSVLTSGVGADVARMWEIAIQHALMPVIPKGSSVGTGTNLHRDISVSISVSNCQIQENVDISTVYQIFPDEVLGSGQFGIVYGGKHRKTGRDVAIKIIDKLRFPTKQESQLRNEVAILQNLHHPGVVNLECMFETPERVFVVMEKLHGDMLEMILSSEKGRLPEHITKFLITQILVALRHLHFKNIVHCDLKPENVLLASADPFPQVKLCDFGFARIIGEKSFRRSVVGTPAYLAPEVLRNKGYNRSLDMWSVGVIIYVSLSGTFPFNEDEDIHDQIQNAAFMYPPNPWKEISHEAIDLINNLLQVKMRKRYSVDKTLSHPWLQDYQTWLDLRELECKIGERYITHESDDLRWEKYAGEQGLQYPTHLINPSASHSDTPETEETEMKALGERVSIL
# assay text: Kinase profiling PKD1
# Format: biochemical
# protocol conditions: 100 micromolar inhibitor concentration; 100 is no change
outcome measure: residual kinase activity, PKD1

1) CC(=O)Nc1ccc(C(=O)Nc2nc3cc(O)ccc3s2)cc1; 52
2) O=C(Nc1nc2cc(O)ccc2s1)c1ccccc1; 60
3) O=C(Nc1nc2cc(O)ccc2s1)c1cccnc1; 71
4) COc1ccc2sc(NC(=O)c3cccc(C(N)=O)c3)nc2c1; 110
5) CC(=O)NC(C)C(=O)Nc1nc2ccc(C(F)(F)F)cc2s1 (stereo not drawn); 82
6) O=C(Nc1nc2ccc(O)cc2s1)c1cccnc1; 54
